The measured values listed here are drawn from patent US11472877.

- Experimental System: T1, human TREM2 on BWZ cells (human, UniProt Q9NZC2 19-230)
- T1 construct: whole, on cells; not tied to the cell line; also called BWZ Human TREM2
- T1 sequence (looked up): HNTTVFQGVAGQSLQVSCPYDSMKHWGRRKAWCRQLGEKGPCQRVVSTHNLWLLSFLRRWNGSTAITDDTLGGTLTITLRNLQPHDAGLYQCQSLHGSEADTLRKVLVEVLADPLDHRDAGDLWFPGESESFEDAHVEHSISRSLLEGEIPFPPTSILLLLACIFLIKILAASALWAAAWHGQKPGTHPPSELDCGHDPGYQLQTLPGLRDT
- Procedure Details: FACS, BWZ cells

[
  {
    "Binder": "T1-12 (antibody, IgG1, V domains shown, huIgG1; also called TI-12; ADI-19079) VH: QLQLQESGPGLVKPSETLSLTCTVSGGSISSSSYYWGWIRQPPGKGLEWIGSIYYSGSTYYNPSLKSRVTISVDTSKNQFSLKLSSVTAADTAVYYCARGGGYPWEAFDYWGKGTTVTVSS VL: EIVLTQSPATLSLSPGERATLSCRASQSVSSYLAWYQQKPGQAPRLLIYDASNRATGIPARFSGSGSGTDFTLTISSLEPEDFAVYYCQQYTSWPLTFGGGTKVEIK",
    "binding result": "no binding"
  },
  {
    "Binder": "T1-25 (antibody, IgG1, V domains shown, huIgG1; also called TI-25; ADI-19092) VH: EVQLVESGGGLVQPGRSLRLSCAASGFTFDDYAMHWVRQAPGKGLEWVSGISWNSGSIGYADSVKGRFTISRDNAKNSLYLQMNSLRAEDTALYYCAKGGSRYSHFDYWGQGTLVTVSS VL: EIVLTQSPATLSLSPGERATLSCRASQSVSSYLAWYQQKPGQAPRLLIYDASNRATGIPARFSGSGSGTDFTLTISSLEPEDFAVYYCQQRSVLPLTFGGGTKVEIK",
    "binding result": "no binding"
  },
  {
    "Binder": "T1-42 (antibody, IgG1, V domains shown, huIgG1; also called TI-42; ADI-19116) VH: QVQLVESGGGVVQPGRSLRLSCAASGFTFSSYGMHWVRQAPGKGLEWVAVIWYDGSNKGYADSVKGRFTISRDNSKNTLYLQMNSLRAEDTAVYYCARELMVTSGGWLYGMDVWGQGTTVTVSS VL: EIVMTQSPATLSVSPGERATLSCRASQSVSSNLAWYQQKPGQAPRLLIYGASTRATGIPARFSGSGSGTEFTLTISSLQSEDFAVYYCQQYNVHPPRTFGGGTKVEIK",
    "binding result": "no binding"
  }
]
